Measurement Target: UniProt Q99814
Sequence (Q99814 whole entry): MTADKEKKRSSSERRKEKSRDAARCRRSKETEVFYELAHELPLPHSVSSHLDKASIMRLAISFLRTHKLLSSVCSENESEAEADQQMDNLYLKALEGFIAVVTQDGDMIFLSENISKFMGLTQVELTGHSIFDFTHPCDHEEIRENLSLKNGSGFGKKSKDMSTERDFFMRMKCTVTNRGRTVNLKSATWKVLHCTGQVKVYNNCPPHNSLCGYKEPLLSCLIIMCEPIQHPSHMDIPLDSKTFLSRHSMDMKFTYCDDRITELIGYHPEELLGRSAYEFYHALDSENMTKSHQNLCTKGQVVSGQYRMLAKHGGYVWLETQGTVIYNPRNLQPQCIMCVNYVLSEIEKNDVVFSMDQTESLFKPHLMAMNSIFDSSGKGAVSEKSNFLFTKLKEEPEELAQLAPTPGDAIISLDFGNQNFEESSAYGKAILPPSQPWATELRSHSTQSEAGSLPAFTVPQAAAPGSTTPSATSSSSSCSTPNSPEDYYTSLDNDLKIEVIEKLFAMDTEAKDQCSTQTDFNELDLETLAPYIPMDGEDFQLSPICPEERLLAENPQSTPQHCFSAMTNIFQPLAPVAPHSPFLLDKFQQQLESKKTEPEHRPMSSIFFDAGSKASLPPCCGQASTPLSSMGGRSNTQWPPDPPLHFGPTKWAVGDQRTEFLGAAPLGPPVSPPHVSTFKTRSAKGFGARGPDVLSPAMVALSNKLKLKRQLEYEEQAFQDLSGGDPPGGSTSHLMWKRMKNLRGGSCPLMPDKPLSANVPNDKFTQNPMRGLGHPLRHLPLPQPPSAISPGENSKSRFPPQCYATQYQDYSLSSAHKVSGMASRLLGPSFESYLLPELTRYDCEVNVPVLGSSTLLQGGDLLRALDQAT
Protocol Details: HIF-2α Luciferase Reporter Assay (serum free) in HIF-Luc-786-0 cells
Format: cell-based
Condition Info: Opti-MEM, 786-0 reporter cells, 20 hours incubation
pIC50: −log10 of the molar value.
Readout: pIC50

O[C@H]1c2c(C(F)(F)F)nn(CCCC(F)(F)F)c2CC[C@H]1F [Example 51]; 6.00 to 7.00
COCCCn1nc(C(F)(F)F)c2c1CCC(F)(F)[C@H]2O [Example 9]; < 6.00
O[C@H]1c2c(C(F)(F)F)nn(CCCOC(F)(F)F)c2[C@H](F)CC1(F)F (single isomer, unassigned) [129/130 DIAST-2]; 6.00 to 7.00
O[C@H]1c2c(C(F)(F)F)nn(C3CC[C@H](F)[C@H](F)C3)c2CC1(F)F (single isomer, unassigned) [72/73 DIAST-2]; > 7.00

I have this compound here, O[C@H]1c2c(C(F)(F)F)nn(CCC3CC(F)(F)C3)c2CCC1(F)F [Example 44] , and I need its recorded pIC50. 6.00 to 7.00

Thanks! And O[C@H]1c2c(C(F)(F)F)nn(-c3ccc(C(F)(F)F)nc3)c2CC1(F)F [Example 68] ? > 7.00

Thanks! And O[C@H]1c2c(C(F)(F)F)nn([C@H]3CCC[C@@H](F)C3)c2CC1(F)F (racemic) [90 DIAST-1] ? > 7.00

Thanks! And O[C@H]1c2c(C(F)(F)F)nn([C@H]3CC[C@@H](F)[C@@H](F)C3)c2CC1(F)F (racemic) [91 DIAST-2] ? > 7.00

Thanks! And O[C@H]1c2c(C(F)(F)F)nn(-c3ccc(C(F)(F)F)cc3)c2CC1(F)F [Example 117] ? > 7.00
